- Tested on: HEK-293T
- measurementNotes: Multiplex assay against HEK293T
- Format: toxicity, cell-based
- measurementConditions: human, 24 h, 10 µM, compound concentration 10 uM, replicate 1
assayEndpoint: Population Pyknosed Nuclei (%)
Express it in %; write the number only.

Tested system HEK-293T; Population Pyknosed Nuclei (%) recorded for `Cc1cc(NC(=O)NCCN2CCC(O)(Cc3ccccc3)CC2)c2ccccc2n1` was 11

Entry CCC(=O)OCC(=O)[C@@]1(OC(=O)CC)[C@@H](C)C[C@H]2[C@@H]3CCC4=CC(=O)C=C[C@]4(C)[C@@]3(Cl)[C@@H](O)C[C@@]21C [BECLOMETHASONE DIPROPIONATE] : Population Pyknosed Nuclei (%) on HEK-293T = 21

Hey, HEK-293T data for CCn1c(-c2nc3cc(C(=O)N4CCCC(N)C4)ccc3n2C)cc2ccccc21.Cl (stereo not drawn) : Population Pyknosed Nuclei (%) came out at 18

Measured Population Pyknosed Nuclei (%) for this entry `CCCCC[C@H](O)/C=C/[C@H]1[C@H](O)CC(=O)[C@@H]1CCCCCCC(=O)O` on HEK-293T: 12

Value sought: Population Pyknosed Nuclei (%), system HEK-293T, item `Cc1sc2c(c1C)C(c1ccc(Cl)cc1)=N[C@H](CC(=O)OC(C)(C)C)c1nnc(C)n1-2` . Result: 23

Note to self: Population Pyknosed Nuclei (%) of `S=C(NCCCc1c[nH]cn1)NCCCN(Cc1ccc(Cl)c(Cl)c1)c1ccc(Br)cn1` with HEK-293T was 39

Let me check: `CCc1nn2c(C)cc(C)nc2c1Cc1ccc(-c2nnc(C3CCNCC3)o2)cc1` , system HEK-293T, measured Population Pyknosed Nuclei (%) is 15

The observed Population Pyknosed Nuclei (%) for CN1CCN2c3ccccc3Cc3ccccc3C2C1.Cl (stereo not drawn) [MIANSERIN HYDROCHLORIDE] when tested with HEK-293T stands at 14
